- Test system: RXRa DBDmut IVT, anti-RXR (DBD mutation: RXRa K156A/R161A, NR concentration 90 nM)
- assayNotes: PBM binding z-score (relative to random genomic background probes); higher = stronger binding; sequences stand for … in GC…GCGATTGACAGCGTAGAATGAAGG
Threshold check on PBM binding z-score: at or above 0.2 gives YES, strictly below gives NO.

sequence | classAssignment
ATATGTAAGTTATCGGGTCATTCAGTTTGCGCAT | YES
CTACCAAGGTGACCAAGGTCGTTGATTACTATTC | YES
ACTATTAGTTGAGACGAGGTCAACCGATAGGTTG | YES
GTACCAAGGTGTATAGGTCGTTGATGAGTAGGCG | NO
TTACCAAGGTGAGCTGCGGTCGTTGATCCAACTC | NO
ATCGAAAGGTCGAGGGGAGTATAGAGAAAGGGAA | YES
ATCTCTAGGTAAAGATAGTTCAGTGGATGCAAAT | NO
AGTCAAAGTTCGGGACGAGGTAACGTAAAGCACG | YES
CGTCCAAGGTCAGCAGGTCAGTGACAGCGACGTG | YES
CCTTACGGGACACGAGGTTATAGCACGACGAGCG | NO
TCTTGTCGATCAAAGGTTAAGAAAGCCGAAGCCT | YES
GCTAGTTGTTCAGTAAAAGGTCACACACCGGTCG | YES
GCATATAGGTAATACGAGGTGAAAGTCCGATTGT | YES
ACTCGGAGGACAAAGGTCAGAGCCACGCCAGTGA | YES
CGTCCAAGGACAAAGGTCAGTGAAGAGATGACGG | YES
CAAACTAGGTCATTGACAGGACAGTGAATAGTAA | YES
TAACCTAGGTCATTCAGGGGCCAGTATAGAAAGC | YES
AGTCAAAGATCACTAGGTAACGTAAGATTCAGCT | NO
AGAATGAGGTTATTAAGATCCGGGAATTGCGGTC | YES
AGTCAAAGTTCTGGACGAGGTAACGTAAAGCACG | NO
AGTCAAAGTTCAGGACGAGGTAACGTGAAGCACG | YES
GGAAGGAGGGCATTCGAGTTGATAGCATGGCGAT | YES
ACTATTAGTTGACTCAGGGCAACCGATACGACGC | YES
GCTATTAGTTGAAAGGGCAACTGAATGATTCTCG | YES
CCTACTGGGCCACGGTCATTGATCAGTCAAAGCA | NO
CCATACGGGTCAAGGTTATAGCACGGGTGGTACG | YES
ACTTACGGGTCAACCAGGTTATAGCACGCGTATA | YES
TAGCCTAGGTCATGGGCCAGCATACCACGCGAAC | NO
TCTTGTAGATCAGCGGGTTAAGAAAGCTGGCCAA | YES
CATTCAGGGTCAGCTAGGCCAGAGTAGGGACGGC | YES
CAGCCTAGGTCAGGGCCACTATAGGAGGAACGTT | NO
AGAACGAGGGCAATGAGTTGATAGCCCGGGTGGC | YES
TCTAGTTGGTCACGGAGGTGACACACGACGGGTA | NO
CGTCAAGGTTCAAGGTAACGTAACAGAAAGCAGC | YES
TAGCCTAGGTCAGATCGGGCCTGTATACGCTATA | NO
ATAAGTAGGTTACATCCGGGTCATTCAGGCTATG | YES
GCTCGCAGGACAAGGTCAGAGCTTTGTCCGTAGA | NO
CGAAATAGGTCATCCAGGACAGTGAATACATTGA | YES
CTCTAAAGGTCGGTTGAGGTGAGTATACGGATAA | YES
CCTCGGAGGACAGAAGGTCTGAGCTGTCCGCTTT | NO
GGTATTAGTTGAAAGGGCAACCGAATGATTCTCG | YES
TATATTAGTTGAAGGGCAACCGACGAGTCCGTTT | YES
CGAACGAGGGCATGTGTTGATAGCAAATGCCGAT | YES
TTACCAAGGTGAAGGTCATTGATCCCTCTGTAGA | YES
CAAACTAGGTCTAGAGGTCAAAGTCCGCTTCCCG | YES
ATCTCTAGGTAAGACTCACTTCAGTGAAGAACGC | NO
ACTAGCAGGCCAAGTTCGGGTCACTCAAACAAAG | YES
ATCTCTAGGTAAGACTCAGTACAGTGAAGAACGC | YES
CCGACTGGGGCATAAGGTTACCTTAAGCCAGCCC | NO
CCGACTGGGGCAAGGGTACCATAACGCACAGCCA | NO
TCTCGTAGGACACGAAAGGTCAGAGCTCGACATC | YES
